Values compiled from the supplement of paper PMC10201428.

test system: VchCAST RNA-guided transposition machinery (E. coli BL21(DE3) host, lacZ target); assay: relative integration efficiency (T-RL orientation) vs wild-type transposon end (log2 (normalized fold change)); transposon end mutated: right end (5 bp flank + 75 bp right end); higher = more efficient transposition
Listed here: items and their measured relative integration efficiency (log2).
# respond with the number and nothing more

Past entries and their recorded results:
{"constructSequence": "ACATTTGTTGATACAACCATAAAATGATAATTACACCCATAAATTGATAATTATCACACCCATAAATTGATATTGCCTCTGATCAAAATGTGAGCGAGTAACAACCTAGTCAGACCAGCACCGACAC", "assaySystem": "VchCAST RNA-guided transposition machinery (E. coli BL21(DE3) host, lacZ target)", "relative integration efficiency (log2)": -0.102}
{"constructSequence": "ACATTTGTTGATACAACCATAAAATGATAATTACTCTGCACCCATAAATTGATAATTATCACACCCATAAATTGATATTGCATCATAGTCAGACCAACATTGCTACGACCCGTATTCGCACCGACAC", "assaySystem": "VchCAST RNA-guided transposition machinery (E. coli BL21(DE3) host, lacZ target)", "relative integration efficiency (log2)": -3.62}
{"constructSequence": "ACATTTGTTGATACAACCATAAAATGATAATTACACCCATAAATTGATAATTATCACACCACGCCCGGTCGCGGTAAGAGGATCATAGTCAGACCAACATTGCTACGACCCGTATTCGCACCGACAC", "assaySystem": "VchCAST RNA-guided transposition machinery (E. coli BL21(DE3) host, lacZ target)", "relative integration efficiency (log2)": -0.546}
{"constructSequence": "ACATTTGTTGATACAACCATAAAATGATAATTACACCCATAAATTGATAATTATCACACAACGAAATTGATATTGCCTCTGATCATAGTCAGACCAACATTGCTACGACCCGTATTCGCACCGACAC", "assaySystem": "VchCAST RNA-guided transposition machinery (E. coli BL21(DE3) host, lacZ target)", "relative integration efficiency (log2)": -0.936}

// switching to the query sequence
Exercise: Query relative integration efficiency (log2) on VchCAST RNA-guided transposition machinery (E. coli BL21(DE3) host, lacZ target) for ACATTTGTTTCGCCAACCATAAAATGATAATTACACCCATAAATTGATAATTATCACACCCATAAATTGATATTGCCTCTGATCATAGTCAGACCAACATTGCTACGACCCGTATTCGCACCGACAC
Solution: -1.72

====

system: VchCAST RNA-guided transposition machinery (E. coli BL21(DE3) host, lacZ target); test: relative integration efficiency (T-RL orientation) vs wild-type transposon end (log2 (normalized fold change)); transposon end mutated: left end; higher = more efficient transposition
Listed here: items and their measured relative integration efficiency (log2).
# respond with the number and nothing more

{"constructSequence": "AATGTTGTTGATGGTTGGTATTTCACTATAAATATAATTATTTATAATCAGCAACTTAACCACAAAACAACCATATATTGATATCTCACAAAAGTTGGTATTCAACTATAAAATGTGAATCGAGTATTTCAGCAAAACTACTGCAGTAAGAA", "measuredValue": -8.45}
{"constructSequence": "AATGTTGTTGATCAACCATAAAGTGATATTTAATAATTATTTATAATCAGCAACTTAACCACAAAACAACCATATATTGATATCTCACAAAACAACCATAAGTTGATATTTTTGTGAATCGAGTATTTCAGCAAAACTACTGCAGTAAGAAA", "measuredValue": -6.9}

// switching to the query sequence
Exercise: Query: relative integration efficiency (log2); subject: AATGTTGTTGATGCAACCATAAAGTGATATTTAATAATTATTTATAATCAGCAACTTAACCCAACCATATATTGATATCTCACAAAACAACCATAAGTTGATATTTTTGTGAATCGAGTATTTCAGCAAAACTACTGCAGTAAGAAAGTTAC
Solution: -7.05
